Listing: Plant response rating, Velvetleaf of selected compounds
# Tested on: velvetleaf
# test.description: Test A pre-/postemergence herbicide test
# Format: in vivo, Abutilon theophrasti
# condition.parameters: Postemergence, 125 g ai/ha; 0 to 100 scale, 0 no effect, 100 complete control
# Source text: […]
Reply briefly: the number, and no unit.

Reference set, count: 3
>  <compound>
Cc1cccc(C2CN(C(=O)OC(C)(C)C)C(=O)C2C(=O)Nc2ccccc2F)c1 (stereo not shown)

>  <assay.system>
velvetleaf

>  <Plant response rating, Velvetleaf>
0

$$$$
>  <compound>
CC1(C(=O)Nc2cccc(F)c2F)C(=O)NCC1c1ccc(F)c(Cl)c1 (stereo not shown)

>  <assay.system>
velvetleaf

>  <Plant response rating, Velvetleaf>
0

$$$$
>  <compound>
O=C1NCC(c2ccc(F)c(F)c2)C1C(=O)Nc1cccc(F)c1F (racemic)

>  <assay.system>
velvetleaf

>  <Plant response rating, Velvetleaf>
50

$$$$

Prompt: Which measured Plant response rating, Velvetleaf value corresponds to O=C1NCC(c2ccc(F)c(F)c2)C1C(=O)Nc1ccccn1 (stereo not shown) ?
Response: 0

----------
Listing: pest or weed control at 500 g/ha of selected molecules
# Test system: pigweed
# test.description: Test A pre-/postemergence herbicide test
# Assay type: in vivo, Amaranthus retroflexus
# condition.parameters: Amaranthus retroflexus, pre-emergence, 240 h; preemergence, 500 g ai/ha; 0 to 100 scale; read-out: Plant response rating, Pigweed
Please answer using the number first and the unit second.

>  <molecule>
O=C1NCC(c2ccc(C(F)(F)F)cc2)C1C(=O)Nc1cccc(F)c1F (stereo not shown)

>  <assay.system>
pigweed

>  <pest or weed control at 500 g/ha>
80%

$$$$

Prompt: Which measured pest or weed control at 500 g/ha value corresponds to O=C1NCCC1C(=O)N(c1ccc(F)c(F)c1)c1ccccc1F (stereo not shown) ?
Response: 0%

Prompt: Also, O=C1NCC(Br)(c2ccccc2)C1C(=O)Nc1ccccc1F (stereo not shown) please.
Response: 0%

Prompt: Also, O=C1NCC(c2ccccc2)C1(Br)C(=O)Nc1ccccc1F (stereo not shown) please.
Response: 0%

----------
# Tested on: blackgrass
# test.description: Test C pre-/postemergence herbicide test
# Format: in vivo, Alopecurus myosuroides
# condition.parameters: Preemergence, 31 g ai/ha; scale 0 to 100, 0 is no effect and 100 is complete control
# Source text: […]
value.kind: Blackgrass plant response rating
Reply briefly: the number, and no unit.

>  <compound>
O=C1NCC(c2ccc(C(F)(F)F)cc2)C1C(=O)Nc1cccc(F)c1F (racemic) [Compound 202]

>  <assay.system>
blackgrass

>  <Blackgrass plant response rating>
70

$$$$

Prompt: Which measured Blackgrass plant response rating value corresponds to O=C1NCC(c2cccc(C(F)(F)F)c2)C1C(=O)Nc1ccc(F)c(F)c1F (stereo not drawn) [Compound 345] ?
Response: 50

Prompt: Also, CC(C)c1cccc(C2CNC(=O)C2C(=O)Nc2cccc(F)c2F)c1 (stereo not drawn) [Compound 319] please.
Response: 40

----------
# System: pigweed
# test.description: Test A pre-/postemergence herbicide test
# Type: in vivo, Amaranthus retroflexus
# condition.parameters: Preemergence, 125 g ai/ha; 0 to 100 scale where 0 is no effect and 100 is complete control
value.kind: Plant response rating, Pigweed

Reference set, count: 3
>  <compound>
O=C1NCC(c2cc(F)cc(F)c2)C1C(=O)Nc1ccccc1Cl (racemic) [Compound 280]

>  <experimental.value>
0

$$$$
>  <compound>
O=C1NCC(c2cccc(OC(F)F)c2)C1C(=O)Nc1ccccc1F (centres unmarked) [Compound 323]

>  <experimental.value>
20

$$$$
>  <compound>
O=C1NCC(c2ccc(F)c(F)c2)C1C(=O)Nc1ccc(F)c(F)c1F (centres unmarked) [Compound 346]

>  <experimental.value>
20

$$$$

Prompt: Which measured Plant response rating, Pigweed value corresponds to O=C1NCC(c2cccc(Br)c2)C1C(=O)Nc1ccc(F)c(F)c1F (centres unmarked) [Compound 310] ?
Response: 40

Prompt: Also, CN1CC(c2cccc(C(F)(F)F)c2)C(C(=O)Nc2cccc(F)c2F)C1=O (centres unmarked) [Compound 305] please.
Response: 0
